Data origin, for the record: PubChem BioAssay (NCI)

Answer each item with its documented growth.
# Test system: HOP-62 NSCLC
# method.notes: NCI-60 one-dose screen, 48 h (100 = growth as untreated, 0 = no growth, -100 = all killed)
# measurement.context: 10 µM unless noted
The panel holds about 83,000 compounds, 20% with a hit somewhere; the sample as a whole holds those more often.
Numbers only; they are read as %.

[Q] Which value of growth has been reported for COc1ccc(C(c2cc(OC)c(OC)c(OC)c2)n2cncn2)cc1O (stereo not given) in the records?
[A] 32.2

[Q] Which value of growth has been reported for C#Cc1ccc(NC(=O)Cc2ccc(/C=C/C(=O)c3nccn3C)cc2)cc1 in the records?
[A] 48.3

[Q] Which value of growth has been reported for O=C1C=CC2(O)OC(c3ccccc3)CC(=O)C2=C1O (stereo not given) in the records?
[A] 86.5

[Q] Which value of growth has been reported for CN1CC(c2ccccc2)C(C(=O)c2ccc(Br)cc2)C12C(=O)Nc1ccccc12 (stereo not given) in the records?
[A] 94.8

[Q] Which value of growth has been reported for CNC1=C(Br)C(=O)c2c(C(=O)OC)c(C)nc(C)c2C1=O in the records?
[A] 99.9

[Q] Which value of growth has been reported for CCOC(=O)c1cc(C(=O)c2cc(OC)cc(OC)c2)n2ccccc12 in the records?
[A] 30

[Q] Which value of growth has been reported for Cn1cc(-c2csc(-c3cn(C)c4ccc(F)cc34)n2)c2cnccc21 in the records?
[A] -70.9

[Q] Which value of growth has been reported for CC1(C)CC[C@]2(CO)CC[C@]3(C)[C@H](CC[C@@H]4[C@@]5(C)CC[C@H](O)C(C)(C)[C@@H]5CC[C@]43C)[C@H]2[C@H]1O in the records?
[A] 54.6

[Q] Which value of growth has been reported for O=C(/C=C/c1ccc(Cl)cc1)c1ccc(Nc2ccnc3cc(Cl)ccc23)cc1 in the records?
[A] 72.2

[Q] Which value of growth has been reported for O=[N+]([O-])c1ccc(Oc2cccc3c(Oc4ccc([N+](=O)[O-])cc4[N+](=O)[O-])cccc23)c([N+](=O)[O-])c1 in the records?
[A] 79.6

[Q] Which value of growth has been reported for CCCCCC(C)(O)C(C(=O)O)c1ccccc1 (stereo not given) in the records?
[A] 101

[Q] Which value of growth has been reported for CC(=O)c1c(/C=C/c2ccc(C)cc2)c2ccccc2[nH]c1=O in the records?
[A] 89.4

[Q] Which value of growth has been reported for CC(C)(C)c1ccc(C(=O)Nc2sc3c(c2C#N)CCC(=O)C3)cc1 in the records?
[A] 49.7

[Q] Which value of growth has been reported for COc1ccccc1/C=C/C1=C(C)CCC(c2ccccc2OC)C1C (stereo not given) in the records?
[A] 17.3

[Q] Which value of growth has been reported for N#Cc1c(-c2ccc(Cl)cc2)nc(NN=Cc2cccc(Cl)c2)nc1N1CCOCC1 in the records?
[A] 92.7

[Q] Which value of growth has been reported for O=C(NC1CCCCCC1)c1ccc2c(=O)n3c(nc2c1)CCCCC3 in the records?
[A] 99.2

[Q] Which value of growth has been reported for COc1cc(/C=C/C(=O)c2ccc(-n3cc(CN4CCN(c5cc6c(cc5F)c(=O)c(C(=O)O)cn6C5CC5)CC4)nn3)cc2)cc(OC)c1OC in the records?
[A] 85.4

[Q] Which value of growth has been reported for CSc1nn2c(-c3cc4cc(Br)ccc4oc3=O)ccnc2c1C#N in the records?
[A] 97.9

[Q] Which value of growth has been reported for O=C(Nc1ncc(Cc2ccc(Cl)cc2)s1)c1ccc2c(c1)OCCO2 in the records?
[A] 26.8

[Q] Which value of growth has been reported for Cn1cc(-c2ccc3c(Nc4cccc(NC(=O)Nc5cccc(F)c5)c4)ncnc3c2)cn1 in the records?
[A] 42.8
